# Ratio hCT/hAmylin binding per record follows
Biological target: T1, human calcitonin receptor (human, UniProt P30988 25-474)
T1 construct: whole, on cells; Cell membranes of a stably transfected BHK cell line (Assay VII); also called hCTR; hCT
T1 sequence (looked up): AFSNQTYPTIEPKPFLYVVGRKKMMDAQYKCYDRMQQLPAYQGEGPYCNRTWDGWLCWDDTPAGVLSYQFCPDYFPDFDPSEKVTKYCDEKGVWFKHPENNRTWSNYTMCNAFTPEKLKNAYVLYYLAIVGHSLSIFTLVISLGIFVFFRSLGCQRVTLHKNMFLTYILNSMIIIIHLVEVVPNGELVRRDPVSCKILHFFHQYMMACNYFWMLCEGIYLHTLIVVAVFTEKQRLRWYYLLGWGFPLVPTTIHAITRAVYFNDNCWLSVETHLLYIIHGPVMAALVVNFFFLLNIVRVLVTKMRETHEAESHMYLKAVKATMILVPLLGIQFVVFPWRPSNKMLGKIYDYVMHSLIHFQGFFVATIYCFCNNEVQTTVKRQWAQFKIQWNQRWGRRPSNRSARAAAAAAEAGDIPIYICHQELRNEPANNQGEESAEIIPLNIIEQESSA
Test: ratio IC50 human calcitonin receptor / IC50 human amylin receptor
Provide a numeric answer; units are not to be included.

// below: answered binders
Binder | Number
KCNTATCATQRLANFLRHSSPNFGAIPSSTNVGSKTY (C20 diacid-gGlu on alpha-amino of the N-terminal residue; Cys2-Cys7 disulfide; C-terminal amide (as human amylin), Acylated analogue of human amylin; also called compound 34) [N^α1-[(4S)-4-carboxy-4-(19-carboxynonadecanoylamino)butanoyl]-[Arg17,Pro21,Pro27,Lys35]-h-amylin] | 64.4
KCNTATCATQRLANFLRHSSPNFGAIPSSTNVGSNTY (C20 diacid-gGlu-2xOEG on alpha-amino of the N-terminal residue; Cys2-Cys7 disulfide; C-terminal amide (as human amylin), Acylated analogue of human amylin; also called compound 24) | 90

Input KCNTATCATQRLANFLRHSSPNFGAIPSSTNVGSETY (C20 diacid-gGlu on alpha-amino of the N-terminal residue; Cys2-Cys7 disulfide; C-terminal amide (as human amylin), Acylated analogue of human amylin; also called compound 23) [N^α1-[(4S)-4-carboxy-4-(19-carboxynonadecanoylamino)butanoyl]-[Arg17,Pro21,Pro27,Glu35]-h-amylin] . Output Ratio hCT/hAmylin binding: 25
